Where do these numbers come from? They come from patent US9334246B2.

Each record here notes measured W2.
system: P. falciparum W2; assay: Malaria SYBR Green Fluorescence Assay, W2 strain; assay type: cell-based, Plasmodium falciparum; conditions: SYBR Green Assay
The answer is to be given in ng/mL; state only the numeric part.

Consider the worked cases shown below.
// CC(C)(C)c1ccc(-c2nc(NCC3(N)CCOCC3)nc(C(Cl)(Cl)Cl)n2)cc1 [Compound 314] : W2 value = 2

// Clc1ccc(-c2nc(NCc3ccccn3)nc(C(Cl)(Cl)Cl)n2)cc1 [Cmpd 141] : W2 value = 237

// COc1ccccc1-c1nc(NCC(C)(C)N)nc(C(Cl)(Cl)Cl)n1 [Cmpd 217] : W2 value = 20

// COc1ccccc1Cc1nc(NCC(C)(C)N)nc(C(Cl)(Cl)Cl)n1 [Cmpd 292] : W2 value = 34

// CC(=O)Nc1cccc(Nc2nc(-c3ccc(S(C)(=O)=O)cc3)nc(C(Cl)(Cl)Cl)n2)c1 [Compound 691] : W2 value = 256

// CCN1CCCC(Nc2nc(-c3ccc(OC)c4ccccc34)nc(C(Cl)(Cl)Cl)n2)C1 (stereo not shown) [Cmpd 280] : W2 value = 76

Pending molecule:
// CCN1CCC(CNc2nc(-c3ccc(-c4ccccc4)cc3)nc(C(Cl)(Cl)Cl)n2)CC1 [Cmpd 306] : W2 value = 30

* * *

system: P. falciparum W2; assay: Malaria SYBR Green Fluorescence Assay, W2 strain; assay type: cell-based, Plasmodium falciparum; conditions: SYBR Green Assay
assayMetric: W2 (ng/mL)
The answer is to be given in ng/mL; state only the numeric part.

// CSc1ccc(-c2nc(NCc3cccnc3)nc(C(Cl)(Cl)Cl)n2)cc1 : W2 value = 238

// OCCN1CCN(c2nc(-c3ccc(-c4ccccc4)cc3)nc(C(Cl)(Cl)Cl)n2)CC1 : W2 value = 24

// CCN(CC)CCNc1nc(-c2ccc(OC)cc2)nc(C(Cl)(Cl)Cl)n1 : W2 value = 259

// CCN(CC)CCNc1nc(Cc2ccc(OC)cc2)nc(C(Cl)(Cl)Cl)n1 : W2 value = 153

// COc1ccccc1-c1nc(NCc2cccnc2)nc(C(Cl)(Cl)Cl)n1 : W2 value = 477

// CC(C)(C)c1ccc(-c2nc(N3CCOCC3)nc(C(Cl)(Cl)Cl)n2)cc1 : W2 value = 834

Pending compound:
// CC(C)(C)OC(=O)N1CC2CC1CN2c1nc(-c2ccc(S(C)(=O)=O)cc2)nc(C(Cl)(Cl)Cl)n1 (centres unmarked) : W2 value = 63

* * *

system: P. falciparum W2; experiment: Malaria SYBR Green Fluorescence Assay, W2 strain; format: cell-based, Plasmodium falciparum; conditions: SYBR Green Assay
Define the label as criterion met when W2 is strictly less than 90 ng/mL and as criterion not met in all remaining cases.

Illustrative cases are given below, each with its answer.
Lookup: Could you please tell me whether W2 recorded for CS(=O)(=O)c1ccc(-c2nc(N3CCCN(CCO)CC3)nc(C(Cl)(Cl)Cl)n2)cc1 is less than 90 ng/mL?
Found: criterion not met

Lookup: Could you please tell me whether W2 recorded for COc1ccc(-c2nc(NC3CCN(C)CC3)nc(C(Cl)(Cl)Cl)n2)cc1 is less than 90 ng/mL?
Found: criterion not met

Lookup: Could you please tell me whether W2 recorded for CN1CCN(c2nc(-c3ccc(-c4ccccc4)cc3)nc(C(Cl)(Cl)Cl)n2)CC1 is less than 90 ng/mL?
Found: criterion met

Lookup: Could you please tell me whether W2 recorded for CN1CCCC1CCNc1nc(-c2ccc(-c3ccccc3)cc2)nc(C(Cl)(Cl)Cl)n1 (stereo not drawn) is less than 90 ng/mL?
Found: criterion not met

Lookup: Could you please tell me whether W2 recorded for CSc1ccc(-c2nc(NC(C)(C)CN)nc(C(Cl)(Cl)Cl)n2)cc1 is less than 90 ng/mL?
Found: criterion not met

---
Lookup: Could you please tell me whether W2 recorded for COc1ccc(-c2nc(NCc3cccnc3)nc(C(Cl)(Cl)Cl)n2)cc1 is less than 90 ng/mL?
Found: criterion not met

Lookup: Could you please tell me whether W2 recorded for CCN1CCCC(Nc2nc(Cc3ccc(OC)cc3)nc(C(Cl)(Cl)Cl)n2)C1 (stereo not drawn) [Cmpd 81] is less than 90 ng/mL?
Found: criterion not met

Lookup: Could you please tell me whether W2 recorded for OCCN1CCN(c2nc(-c3ccc(C(Cl)(Cl)Cl)cc3)nc(C(Cl)(Cl)Cl)n2)CC1 is less than 90 ng/mL?
Found: criterion met

Lookup: Could you please tell me whether W2 recorded for COc1ccc(-c2nc(N3CCCN(C)CC3)nc(C(Cl)(Cl)Cl)n2)cc1 is less than 90 ng/mL?
Found: criterion not met

Lookup: Could you please tell me whether W2 recorded for CCN(CC)CCNc1nc(Nc2ccc(OC)nc2)nc(C(Cl)(Cl)Cl)n1 is less than 90 ng/mL?
Found: criterion not met
